tested on: biofilm of A. naeslundi; assay: Light-triggered reduction of bacterial biofilm (24 h old); format: cell-based; conditions: 0.1% dye incubated 2 min prior to irradiation; wavelength given with each dye; 24 J/cm^2 (200 mW/cm^2 @ 2 min)
Threshold 60%: Percentage Reduction in Biofilm, Light plus photosensitizer strictly smaller gives class 1, otherwise class 0.

[
  {
    "compound": "COc1cc(S(=O)(=O)[O-])c(C)cc1N=Nc1c(O)ccc2cc(S(=O)(=O)[O-])ccc12.[Na+].[Na+]",
    "group": "class 1"
  },
  {
    "compound": "O=C1/C(=C2\\Nc3ccc(S(=O)(=O)[O-])cc3C2=O)Nc2ccc(S(=O)(=O)[O-])cc21.[Na+].[Na+]",
    "group": "class 1"
  },
  {
    "compound": "CCN(Cc1cccc(S(=O)(=O)[O-])c1)c1ccc(C(=C2C=CC(=[N+](CC)Cc3cccc(S(=O)(=O)[O-])c3)C=C2)c2ccc(O)cc2S(=O)(=O)[O-])cc1.[Na+].[Na+]",
    "group": "class 1"
  },
  {
    "compound": "O=C([O-])C1=NN(c2ccc(S(=O)(=O)[O-])cc2)C(=O)C1N=Nc1ccc(S(=O)(=O)[O-])cc1.[Na+].[Na+].[Na+] (centres unmarked)",
    "group": "class 0"
  },
  {
    "compound": "CCN(Cc1cccc(S(=O)(=O)[O-])c1)c1ccc(C(=C2C=CC(=[N+](CC)Cc3cccc(S(=O)(=O)[O-])c3)C=C2)c2ccccc2S(=O)(=O)[O-])cc1.[Na+].[Na+] [Erioglaucine, Erioglaucine disodium salt]",
    "group": "class 1"
  }
]

###

Quick reference: Percentage Reduction in Biofilm, Light plus photosensitizer of the listed items.
Test system: biofilm of A. naeslundi
Experiment: Light-triggered reduction of bacterial biofilm (24 h old)
Format: cell-based
Conditions: 0.1% dye incubated 2 min prior to irradiation; wavelength given with each dye; 24 J/cm^2 (200 mW/cm^2 @ 2 min)
Experimental: Bacterial biofilms (24 h old) were treated with the photosensitizers or photo-triggered actives described in the tables below at a concentration less than their minimum inhibitory concentration (MIC). […] On a biofilm of A. naeslundi, the impact of four “photosensitizers” (0.1% concentration) in the presence of light was evaluated. […]
readout_type: Percentage Reduction in Biofilm, Light plus photosensitizer (%)

[
  {
    "smiles_input": "O=S(=O)([O-])c1ccc(/N=N/c2cc(S(=O)(=O)[O-])c3ccccc3c2O)c2ccccc12.[Na+].[Na+]",
    "quantitative_result": 18
  },
  {
    "smiles_input": "Cc1cc2nc3c(=O)[nH]c(=O)nc-3n(C[C@H](O)[C@H](O)[C@H](O)CO)c2cc1C",
    "quantitative_result": 56
  },
  {
    "smiles_input": "CN(C)c1ccc(C(=C2C=CC(=[N+](C)C)C=C2)c2c(O)c(S(=O)(=O)[O-])cc3cc(S(=O)(=O)[O-])ccc23)cc1.[Na+]",
    "quantitative_result": 43
  }
]
